Catalogue of pIC50 readings, one per entry.
Target: Kras and SOS1 (biotin-tagged human Kras loaded with GDP, His-tagged human SOS1) (Homo sapiens, UniProt P01116, G12D)
Construct: made in house; host or cells: E. coli (stated for Kras only)
Sequence (P01116 1-188 isoform P01116-2 G12D): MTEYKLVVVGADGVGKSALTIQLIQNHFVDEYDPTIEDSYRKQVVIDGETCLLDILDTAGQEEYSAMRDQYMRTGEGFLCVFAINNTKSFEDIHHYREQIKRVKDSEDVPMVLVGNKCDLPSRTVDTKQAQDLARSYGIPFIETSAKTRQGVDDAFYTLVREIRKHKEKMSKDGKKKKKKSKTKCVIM
Experiment: Protein-protein interaction inhibition between Kras and SOS1 (KrasGl2D-SOS PPI) using AlphaScreen
Format: binding
Details: AlphaScreen; biotin-tagged human Kras loaded with GDP, His-tagged human SOS1; read-out: KRAS G12D-SOS PPI IC50
Starred links: 1 amine or outer side, 2 acyl side, 3 side chain; linkers in the order of their positions; H or OH if unused. Positions of bridges follow the written chain, without caps; N, C: chain ends. Non-standard residues stand in square brackets, D forms with d. Residues, ends and D or L forms follow the SMILES beside them. *: point of attachment. hPhe(3-Cl-4-CF3) = N[C@@H](CCc1ccc(C(F)(F)F)c(Cl)c1)C(=O)O; hPhe(4-CF3) = N[C@@H](CCc1ccc(C(F)(F)F)cc1)C(=O)O; NMePhe(3-Cl) = CN[C@@H](Cc1cccc(Cl)c1)C(=O)O; NMePhe(4-Cl) = CN[C@@H](Cc1ccc(Cl)cc1)C(=O)O; NMePhe(3-Me) = CN[C@@H](Cc1cccc(C)c1)C(=O)O; NMePhe(4-Me) = CN[C@@H](Cc1ccc(C)cc1)C(=O)O; NMedβ3hAla = C[C@H](CC(=O)[*:2])N(C)[*:1]; NMeGly(cPent) = CN[C@H](C(=O)O)C1CCCC1; NMeF = CN[C@@H](Cc1ccccc1)C(=O)O; NMeI = CC[C@H](C)[C@H](NC)C(=O)O; dNMeF = CN[C@H](Cc1ccccc1)C(=O)O; NMeD = CN[C@@H](CC(=O)O)C(=O)O; NMeL = CN[C@@H](CC(C)C)C(=O)O; NMeV = CN[C@H](C(=O)O)C(C)C; d(β3hA) = C[C@@H](N)CC(=O)O; NMeA = CN[C@@H](C)C(=O)O; Piperidide = C1CCN(*)CC1; Pyrrolidide = C1CCN(*)C1; Ac5c = NC1(C(=O)O)CCCC1; Aze = O=C(O)[C@@H]1CCN1; Sar = CNCC(=O)O
// scale note: pIC50 = -log10(conc_M); give the bare number

Worked examples follow.
CC[C@H](C)[C@@H]1NC(=O)[C@H](CC(C)C)N(C)C(=O)C[C@@H](C)N(C)C(=O)[C@H](C(C)C)N(C)C(=O)C2(CCCC2)NC(=O)[C@@H]2CCCN2C(=O)[C@H](CCc2ccc(C(F)(F)F)c(Cl)c2)NC(=O)CN(C)C(=O)[C@H](Cc2cccc(C)c2)N(C)C(=O)CN(C)C(=O)CN(C)C1=O [Compound 1570] (cyclo([Ac5c][NMeV][NMedβ3hAla][NMeL]I[Sar][Sar][NMePhe(3-Me)][Sar][hPhe(3-Cl-4-CF3)]P))    8.37
CC[C@H](C)[C@@H]1NC(=O)[C@H](C)N(C)C(=O)C[C@@H](C(=O)N2CCCC2)NC(=O)[C@H](CC(C)C)N(C)C(=O)[C@H](Cc2ccccc2)N(C)C(=O)[C@H](CC(C)C)NC(=O)[C@H](CCc2ccc(C(F)(F)F)cc2)NC(=O)CN(C)C(=O)[C@H](Cc2ccc(Cl)cc2)N(C)C(=O)CN(C)C(=O)CNC1=O [Compound 808] ([NMeA]IG[Sar][NMePhe(4-Cl)][Sar][hPhe(4-CF3)]L[NMeF][NMeL]D-Pyrrolidide; lactam N-11)    7.00
CC[C@H](C)[C@@H]1NC(=O)[C@H](C)N(C)C(=O)C[C@@H](C)NC(=O)[C@H](C2CCCC2)N(C)C(=O)C2(CCCC2)NC(=O)[C@@H]2CCCN2C(=O)[C@H](CCc2ccc(C(F)(F)F)c(Cl)c2)NC(=O)CN(C)C(=O)[C@H](Cc2cccc(Cl)c2)N(C)C(=O)[C@@H]2CCCN2C(=O)CN(C)C1=O [Compound 186] (cyclo([Ac5c][NMeGly(cPent)][d(β3hA)][NMeA]I[Sar]P[NMePhe(3-Cl)][Sar][hPhe(3-Cl-4-CF3)]P))    7.32

For the next question, use this compound.
Specify reported pIC50 for the compound shown: CC[C@H](C)[C@@H]1NC(=O)[C@H](CC(C)C)N(C)C(=O)C[C@@H](C(=O)N2CCCCC2)N(C)C(=O)[C@H]([C@@H](C)CC)N(C)C(=O)C2(CCCC2)NC(=O)[C@@H](Cc2ccccc2)N(C)C(=O)[C@H](CCc2ccc(C(F)(F)F)c(Cl)c2)NC(=O)CN(C)C(=O)[C@H](Cc2ccc(C)cc2)N(C)C(=O)[C@@H]2CCN2C(=O)[C@H](C)N(C)C1=O [Compound 1989] ([NMeL]I[NMeA][Aze][NMePhe(4-Me)][Sar][hPhe(3-Cl-4-CF3)][dNMeF][Ac5c][NMeI][NMeD]-Piperidide; lactam N-11)
6.34

----------
Catalogue of pIC50 readings, one per entry.
Molecular target: Kras and SOS1 (biotin-tagged human Kras loaded with GDP, His-tagged human SOS1) (Homo sapiens, UniProt P01116, G12D)
Construct: made in house; host or cells: E. coli (stated for Kras only)
Experiment: Protein-protein interaction inhibition between Kras and SOS1 (KrasGl2D-SOS PPI) using AlphaScreen
Type: binding
Details: AlphaScreen; biotin-tagged human Kras loaded with GDP, His-tagged human SOS1; read-out: KRAS G12D-SOS PPI IC50
Starred links: 1 amine or outer side, 2 acyl side, 3 side chain; linkers in the order of their positions; H or OH if unused. Positions of bridges follow the written chain, without caps; N, C: chain ends. Non-standard residues stand in square brackets, D forms with d. Residues, ends and D or L forms follow the SMILES beside them. *: point of attachment. hPhe(3-Cl-4-CF3) = N[C@@H](CCc1ccc(C(F)(F)F)c(Cl)c1)C(=O)O; X17 = Cc1cncc(C[C@@H](C(=O)[*:2])N(C)[*:1])c1; NMePhe(4-Me) = CN[C@@H](Cc1ccc(C)cc1)C(=O)O; NMeNva(5,5-F2) = CN[C@@H](CCC(F)F)C(=O)O; NMeGly(cPent) = CN[C@H](C(=O)O)C1CCCC1; NMeGly(cBu) = CN[C@H](C(=O)O)C1CCC1; NMeCha = CN[C@@H](CC1CCCCC1)C(=O)O; NMeChg = CN[C@H](C(=O)O)C1CCCCC1; NMeI = CC[C@H](C)[C@H](NC)C(=O)O; d(β3hL) = CC(C)C[C@@H](N)CC(=O)O; NMeD = CN[C@@H](CC(=O)O)C(=O)O; NMeL = CN[C@@H](CC(C)C)C(=O)O; NMeV = CN[C@H](C(=O)O)C(C)C; d(β3hA) = C[C@@H](N)CC(=O)O; NMeA = CN[C@@H](C)C(=O)O; Piperidide = C1CCN(*)CC1; Ac5c = NC1(C(=O)O)CCCC1; Aze = O=C(O)[C@@H]1CCN1; Sar = CNCC(=O)O
// scale note: pIC50 = -log10(conc_M); give the bare number

CC[C@H](C)[C@@H]1NC(=O)[C@H](C)N(C)C(=O)C[C@@H](C)NC(=O)[C@H](C2CCCC2)N(C)C(=O)C2(CCCC2)NC(=O)[C@@H]2CCCN2C(=O)[C@H](CCc2ccc(C(F)(F)F)c(Cl)c2)NC(=O)[C@H]2CCCN2C(=O)[C@H](CC2CCCCC2)N(C)C(=O)[C@@H]2CCN2C(=O)CN(C)C1=O [Compound 1479] (cyclo([Ac5c][NMeGly(cPent)][d(β3hA)][NMeA]I[Sar][Aze][NMeCha][dP][hPhe(3-Cl-4-CF3)]P))    6.92
CC[C@H](C)[C@@H]1NC(=O)[C@H](CC(C)C)N(C)C(=O)C[C@@H](C(=O)N(C)C)N(C)C(=O)[C@H]([C@@H](C)CC)N(C)C(=O)C2(CCCC2)NC(=O)[C@H](CCC(F)F)N(C)C(=O)[C@H](CCc2ccc(C(F)(F)F)c(Cl)c2)NC(=O)CN(C)C(=O)[C@H](Cc2ccc(C)cc2)N(C)C(=O)[C@@H]2CCN2C(=O)[C@H](C)N(C)C1=O [Compound 1898] ([NMeL]I[NMeA][Aze][NMePhe(4-Me)][Sar][hPhe(3-Cl-4-CF3)][NMeNva(5,5-F2)][Ac5c][NMeI][NMeD]-NMe2; lactam N-11)    9.03
CC[C@H](C)[C@@H]1NC(=O)[C@H](CC(C)C)N(C)C(=O)C[C@@H](C(=O)N2CCCCC2)N(C)C(=O)[C@H](C2CCCCC2)N(C)C(=O)C2(CCCC2)NC(=O)[C@H](Cc2cncc(C)c2)N(C)C(=O)[C@H](CCc2ccc(C(F)(F)F)c(Cl)c2)NC(=O)CN(C)C(=O)[C@H](CC2CCCCC2)N(C)C(=O)[C@@H]2CCN2C(=O)CN(C)C1=O [Compound 477] ([NMeL]I[Sar][Aze][NMeCha][Sar][hPhe(3-Cl-4-CF3)][X17][Ac5c][NMeChg][NMeD]-Piperidide; lactam N-11)    8.37

Specify reported pIC50 for the compound shown: CC[C@H](C)[C@@H]1NC(=O)[C@H](C2CCC2)N(C)C(=O)C[C@@H](C)NC(=O)[C@H](C(C)C)N(C)C(=O)C2(CCCC2)NC(=O)[C@@H]2CCCN2C(=O)[C@H](CCc2ccc(C(F)(F)F)c(Cl)c2)NC(=O)CN(C)C(=O)[C@H](CC2CCCCC2)N(C)C(=O)[C@@H]2CCN2C(=O)[C@H](C)N(C)C1=O [Compound 465] (cyclo([Ac5c][NMeV][d(β3hA)][NMeGly(cBu)]I[NMeA][Aze][NMeCha][Sar][hPhe(3-Cl-4-CF3)]P))
7.26

Specify reported pIC50 for the compound shown: CC[C@H](C)[C@@H]1NC(=O)[C@H](CC(C)C)N(C)C(=O)C[C@@H](CC(C)C)NC(=O)[C@H](C(C)C)N(C)C(=O)C2(CCCC2)NC(=O)[C@@H]2CCCN2C(=O)[C@H](CCc2ccc(C(F)(F)F)c(Cl)c2)NC(=O)CN(C)C(=O)[C@H](CC2CCCCC2)N(C)C(=O)CN(C)C(=O)CN(C)C1=O [Compound 1032] (cyclo([Ac5c][NMeV][d(β3hL)][NMeL]I[Sar][Sar][NMeCha][Sar][hPhe(3-Cl-4-CF3)]P))
7.22
